Target: human TLR7 (Homo sapiens, UniProt Q9NYK1)
Construct: host or cells: HEK293 reporter cells
Sequence (Q9NYK1 27-1049): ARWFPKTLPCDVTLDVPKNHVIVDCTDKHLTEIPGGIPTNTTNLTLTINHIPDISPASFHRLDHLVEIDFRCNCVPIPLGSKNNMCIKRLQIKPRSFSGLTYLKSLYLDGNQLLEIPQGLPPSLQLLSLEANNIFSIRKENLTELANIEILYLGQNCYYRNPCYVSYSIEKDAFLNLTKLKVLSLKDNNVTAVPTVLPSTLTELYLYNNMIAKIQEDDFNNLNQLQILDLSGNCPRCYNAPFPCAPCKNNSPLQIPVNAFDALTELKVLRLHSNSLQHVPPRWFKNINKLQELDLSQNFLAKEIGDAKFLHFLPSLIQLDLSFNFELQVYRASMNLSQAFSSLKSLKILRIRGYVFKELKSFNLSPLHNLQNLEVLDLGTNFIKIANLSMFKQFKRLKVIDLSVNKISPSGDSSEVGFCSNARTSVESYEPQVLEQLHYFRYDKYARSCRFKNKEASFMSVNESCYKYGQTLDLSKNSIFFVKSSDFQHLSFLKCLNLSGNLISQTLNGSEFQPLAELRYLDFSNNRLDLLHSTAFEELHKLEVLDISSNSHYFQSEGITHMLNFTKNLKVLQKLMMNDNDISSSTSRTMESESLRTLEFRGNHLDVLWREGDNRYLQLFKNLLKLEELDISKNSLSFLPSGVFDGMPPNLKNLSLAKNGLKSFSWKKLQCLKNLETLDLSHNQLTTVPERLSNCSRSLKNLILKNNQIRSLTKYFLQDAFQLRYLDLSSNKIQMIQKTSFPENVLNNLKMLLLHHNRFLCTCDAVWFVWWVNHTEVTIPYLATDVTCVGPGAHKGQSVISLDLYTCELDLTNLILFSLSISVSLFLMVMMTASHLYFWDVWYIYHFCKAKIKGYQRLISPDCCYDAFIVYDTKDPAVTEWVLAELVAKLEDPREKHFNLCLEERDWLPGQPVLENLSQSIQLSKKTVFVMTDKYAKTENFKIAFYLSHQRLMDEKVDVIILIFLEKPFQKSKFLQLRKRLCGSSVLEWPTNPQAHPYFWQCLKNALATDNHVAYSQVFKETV
Assay: HEK293 NFKB reporter assay, human TLR7
Assay type: cell-based
Conditions: Table 1c; HEK293 reporter cells expressing human TLR7; read-out: HEK293 hTLR7 EC50
attribute measured: EC50 (µM)
Entry rule: numbers only, all in µM.

{"compound": "CCCN(CCC)C(=O)C1=Cc2ccc(CCCCCNC(=O)OC(C)(C)C)cc2N=C(N)C1 [Bz-69]", "target or test system": "human TLR7 (Homo sapiens, UniProt Q9NYK1)", "EC50, µM": 3.21}
{"compound": "CCCN(CCC)C(=O)C1=Cc2ccc(-c3cc(C(F)(F)F)cc(S(=O)(=O)N4CC(CN(C)C)C4)c3)cc2N=C(N)C1 [Bz-39]", "target or test system": "human TLR7 (Homo sapiens, UniProt Q9NYK1)", "EC50, µM": 0.042}
{"compound": "CCCN(CCC)C(=O)C1=Cc2ccc(C#CCCCN)cc2N=C(N)C1 [Bz-68]", "target or test system": "human TLR7 (Homo sapiens, UniProt Q9NYK1)", "EC50, µM": 4.6}

// query Report value: EC50, system: human TLR7 (Homo sapiens, UniProt Q9NYK1), compound: CCCN(OCC)C(=O)C1=Cc2ccc(-c3cccc(S(=O)(=O)N4CC(CN(C)C)C4)c3)cc2N=C(N)C1 [Bz-63]
// result 1.27

// query Report value: EC50, system: human TLR7 (Homo sapiens, UniProt Q9NYK1), compound: CCCN(OCC(F)(F)F)C(=O)C1=Cc2ccc(-c3cccc(S(=O)(=O)N4CC(CO)C4)c3)cc2N=C(N)C1 [Bz-73]
// result 4.48

// query Report value: EC50, system: human TLR7 (Homo sapiens, UniProt Q9NYK1), compound: CCCN(CCCNC(=O)c1ccc(OCC)cc1)C(=O)C1=Cc2ccc(-c3cccc(S(=O)(=O)N4CC(CO)C4)c3)cc2N=C(N)C1 [Bz-51]
// result 1.43

// query Report value: EC50, system: human TLR7 (Homo sapiens, UniProt Q9NYK1), compound: CCCN(CCc1ccc(OC)cc1)C(=O)C1=Cc2ccc(-c3cccc(S(=O)(=O)N4CC(CN(C)C)C4)c3)cc2N=C(N)C1 [Bz-76]
// result 0.969

// query Report value: EC50, system: human TLR7 (Homo sapiens, UniProt Q9NYK1), compound: CCON(CCC(F)(F)F)C(=O)C1=Cc2ccc(-c3cccc(S(=O)(=O)N4CC(CO)C4)c3)cc2N=C(N)C1 [Bz-66]
// result 4.61

// query Report value: EC50, system: human TLR7 (Homo sapiens, UniProt Q9NYK1), compound: CCCN(CCC)C(=O)C1=Cc2ccc(C#CCCCNC(=O)OC(C)(C)C)cc2N=C(N)C1 [Bz-67]
// result 3.93
